# measurement.protocol: Counterscreen for Identifying a Potential Treatment of Ataxia-Telangiectasia: Hit Validation; also: potency is read from the fitted curve at half-maximal effect
# stated.conditions: cell-free AlphaLISA/AlphaScreen artifact counterscreen, PBS only, no cells; series mostly up to 76.9 µM
Activity calls are given as the source filed them. Calls follow the shape of the dose curve; as a rule, active = well fitted activation curve with a large enough effect; inconclusive = small, poorly fitted or top-dose-only effect; inactive = no such curve, though single readings can be large or run the other way.
endpoint: Potency

# molecule, result
records = [
    ("CC(C)c1ccc(C(C(=O)NC2CCCCC2)N(C(=O)c2ccccn2)c2cccnc2)cc1 (stereo unspecified)", "inactive"),
    ("CCN1CCN(CC(=O)Nc2ccc(C(C)=O)cc2)CC1", "inactive"),
    ("Cc1ccnc(NC(=O)c2ccccc2NC(=O)c2ccccc2)c1", "inactive"),
    ("CCOC(=O)C1=C(O)C(=O)N(Cc2ccccc2)C1", "inactive"),
    ("Cn1c(=O)[nH]c(=O)c2[nH]c(N(Cc3ccccc3)Cc3ccccc3)nc21", "inactive"),
    ("COc1ccc2nc(C)cc(Nc3ccc(C(=O)O)cc3)c2c1", "inactive"),
    ("COc1ccccc1[C@H]1C(c2cccc(Cl)c2)=NN(c2ccccc2)[C@@H]1CO", "29.2 µM (active)"),
    ("CNC(=S)N/N=C/c1ccc2c(c1)OCCO2", "inactive"),
    ("COc1ccc(CNC(=O)COc2cccnc2[N+](=O)[O-])cc1OC", "inactive"),
    ("CCC(Oc1ccccc1)C(=O)N(C)CC(=O)N(CC(C)C)c1c(N)n(CC(C)C)c(=O)[nH]c1=O (stereo unspecified)", "inactive"),
    ("Cc1ccc2c(c1)C(c1ccccc1)N(C(=O)CC(C)C)CC(=O)N2 (stereo unspecified)", "inactive"),
]

---

# measurement.protocol: Counterscreen for Identifying a Potential Treatment of Ataxia-Telangiectasia: Hit Validation
# stated.conditions: cell-free AlphaLISA/AlphaScreen artifact counterscreen, PBS only, no cells; series mostly up to 76.9 µM
The source made the active and inactive calls. The call rests on the fitted dose curve; in most records, active means well fitted activation curve with a large enough effect; inconclusive means small, poorly fitted or top-dose-only effect; inactive means no such curve, though single readings can be large or run the other way.
Outcomes: active, inactive

# compound, group
measured = [
    ("COC(=O)Cn1ccc2cc(S(=O)(=O)N3CCCCC3)ccc21", "inactive"),
    ("COc1ccccc1OC(=O)Nc1ccc(Cl)cc1", "active"),
    ("C=CCC(CC)C(=O)NC(=O)N1CCCc2ccccc21 (stereo unspecified)", "inactive"),
    ("C=CCSc1nc2ccccc2n1C(=O)/C=C/c1cc(OC)c(OC)c(OC)c1", "inactive"),
    ("COc1ccccc1NC(=O)C1CCCN(S(=O)(=O)c2ccc(-n3cnnn3)cc2)C1 (stereo unspecified)", "inactive"),
    ("COc1ccc(Nc2cc3n(c(=O)n2)CCc2cc(OC)c(OC)cc2-3)cc1", "inactive"),
    ("CCN1CCN(c2oc(COc3ccc(Cl)cc3)nc2C#N)CC1", "inactive"),
    ("Cc1ccc(C(=O)c2c(C)oc3c2C(=O)C(=O)c2ccccc2-3)cc1", "inactive"),
    ("COc1ccccc1Nc1nc(NCCCN(C)C)nc(N)c1[N+](=O)[O-]", "inactive"),
    ("CN(C)C(=O)c1nc2ccc(Cl)cn2c1CNCc1cccc(OC(F)(F)F)c1", "inactive"),
    ("Cc1ccccc1OCC(=O)Nc1cccc(C(=O)O)c1", "inactive"),
]

---

# measurement.protocol: Counterscreen for Identifying a Potential Treatment of Ataxia-Telangiectasia: Hit Validation
# stated.conditions: cell-free AlphaLISA/AlphaScreen artifact counterscreen, PBS only, no cells; series mostly up to 76.9 µM
Calls of active or inactive are those of the source. Calls come from the whole dose curve; as a rule, active = well fitted activation curve with a large enough effect; inconclusive = small, poorly fitted or top-dose-only effect; inactive = no such curve, though single readings can be large or run the other way.
Outcomes: active, inactive

# molecule, group
data = [
    ("Cc1ccc(NC(=O)CSc2nnc([C@H](C)NC(=O)OC(C)(C)C)o2)c(C)c1", "inactive"),
    ("C=Cc1c(C)c2cc3[nH]c(cc4nc(cc5nc(cc1[nH]2)C(C)=C5CCC(=O)O)C(CCC(=O)O)=C4C)c(C)c3C=C", "active"),
    ("O=C(C[n+]1cccc2ccccc21)c1ccc(NC(=O)c2ccccc2)cc1", "inactive"),
    ("COc1ccc(-c2nn(C)c(=O)[nH]2)cc1", "inactive"),
    ("O=C1C(Cl)=C(Nc2ccc3cn[nH]c3c2)C(=O)c2ccccc21", "inactive"),
    ("COc1cc(CCC(=O)OCC(=O)N2CCc3ccccc32)cc(OC)c1OC", "inactive"),
    ("CCn1nc(C)c(CNC(=O)c2cc(COc3ccc(F)cc3Cl)on2)c1C", "inactive"),
    ("CCCN1CN(c2ccccc2)C(=S)N(c2ccccc2)C1", "inactive"),
    ("CCn1nc(C)c(/C=N/NC(=O)Cn2cncn2)c1C", "inactive"),
    ("CCS(=O)(=O)c1ccc(C(=O)Nc2ccccc2)c(Cl)c1Cl", "inactive"),
    ("N#CCN1C(=O)C(=O)N(Cc2cccc(Cl)c2)C1=O", "inactive"),
    ("CN(C)S(=O)(=O)c1ccc(NC(=O)c2ccc([N+](=O)[O-])cc2)cc1", "inactive"),
    ("COc1ccc(CCn2c(S)nc3ccccc3c2=O)cc1", "inactive"),
    ("COc1ccc(OC)c(C2CC(c3ccccc3)=NN2C(=S)Nc2ccccc2)c1 (configuration not stated)", "inactive"),
    ("Cn1c(=O)oc2cc(S(=O)(=O)N3CCc4ccccc43)ccc21", "inactive"),
    ("CCC(C)NC(=O)c1cn(CCOC)c(=O)c2c1c1ccccc1n2C (configuration not stated)", "inactive"),
    ("CC(=O)Nc1ccc(NC(=O)CSc2nnnn2-c2ccc(F)cc2)cc1", "inactive"),
]

Attribution: PubChem BioAssay AID493185
